Molecular target: SARS-CoV-2 NSP3 macrodomain (Mac1) (Severe acute respiratory syndrome coronavirus 2, UniProt P0DTD1)
Type: binding
Details: occupancy estimate from PanDDA
Measurement Label: 2*(1-BDC) (%)
Return type: number; implicit unit %.

Sample O=C(O)C(F)(F)F.OC[C@H](Cc1ccc(O)cc1)Nc1ncnc2[nH]ccc12 [AVI-4066] — what was its 2*(1-BDC) (%)? 40

Need 2*(1-BDC) (%), item OCC(Cc1ccoc1)Nc1ncnc2[nH]ccc12 (centres unmarked) [AVI-3705] 42

# input compound: OC1(CNc2ncnc3[nH]ccc23)CCCC(C(F)(F)F)C1 (centres unmarked) [AVI-4309] ; wanted: its 2*(1-BDC) (%) 40

Which 2*(1-BDC) (%) value is on record for CC(C)(C)C1CCC(CO)N(c2ncnc3[nH]ccc23)C1 (centres unmarked) [AVI-3719] ? 16

// returns reported 2*(1-BDC) (%) for input OCC(Nc1ncnc2[nH]ccc12)C1CCOC1 (centres unmarked) [AVI-3679] 32

* * *

For each entry below, report its inhibition at 200 µM value.
Target: SARS-CoV-2 NSP3 macrodomain (Mac1) (Severe acute respiratory syndrome coronavirus 2)
Test: biochemical
Format: binding
Settings: SARS CoV-2 macrodomain HTRF assay, single dose concentration 200 μM; read-out: Average % competition
Numeric answer only, unit % assumed.

Report inhibition at 200 µM for CC(C)(O)[C@H]1CCCN1c1ncnc2[nH]ccc12 [AVI-607] please. 100

Any idea what its inhibition at 200 µM is? The compound is OCC1CC2(CCCC2)CN1c1ncnc2[nH]ccc12 (stereo not shown) [AVI-3708] 90

If you can, please state the reported inhibition at 200 µM value of CC1(C)C[C@@H](CO)N(c2ncnc3[nH]ccc23)C1.O=C(O)C(F)(F)F [AVI-3704] . 90

Name the recorded inhibition at 200 µM for O=C(O)C(F)(F)F.OC1([C@H]2CCCN2c2ncnc3[nH]ccc23)Cc2ccccc2C1 [AVI-3731] . 100

* * *

Molecular target: SARS-CoV-2 NSP3 macrodomain (Mac1) (Severe acute respiratory syndrome coronavirus 2)
Format: binding
Conditions: crystal soak 10 mM; DMSO background map
Measurement Label: PanDDA run, DMSO background map: Hit

# Compound, Measurement Label, Assay Result
rows = [
    ("O=C(O)C(F)(F)F.OC[C@@H]1CC2(CC2)CN1c1ncnc2[nH]ccc12", "PanDDA run, DMSO background map: Hit", "TRUE"),
    ("OC1CCCN(c2ncnc3[nH]ccc23)C1 (stereo not drawn)", "PanDDA run, DMSO background map: Hit", "TRUE"),
    ("OCC1CC2(CCOCC2)CN1c1ncnc2[nH]ccc12 (stereo not drawn)", "PanDDA run, DMSO background map: Hit", "TRUE"),
]

* * *

Record form. Attribute: PanDDA run, DMSO background map: 1-BDC. Fill in for each entry.
Target: SARS-CoV-2 NSP3 macrodomain (Mac1) (Severe acute respiratory syndrome coronavirus 2)
Assay type: binding
Details: crystal soak 10 mM; DMSO background map

Reported PanDDA run, DMSO background map: 1-BDC for OCC1CC2(CCCC2)CN1c1ncnc2[nH]ccc12 (centres unmarked) : what is it? 0.32

If you can, please state the reported PanDDA run, DMSO background map: 1-BDC value of OCC1CC2(CCCCC2)CN1c1ncnc2[nH]ccc12 (centres unmarked) . 0.29

Tell me the measured PanDDA run, DMSO background map: 1-BDC of `O=C(O)C(F)(F)F.OCC12CC(CN1c1ncnc3[nH]ccc13)C2` , please. 0.22

Record request: PanDDA run, DMSO background map: 1-BDC value, item `O=C(O)C(F)(F)F.O[C@H]1CCC[C@@H]1Nc1ncnc2[nH]ccc12` 0.11

# input compound: CC(c1ccccc1)C(CO)Nc1ncnc2[nH]ccc12 (centres unmarked) ; wanted: its PanDDA run, DMSO background map: 1-BDC 0.14

Reported PanDDA run, DMSO background map: 1-BDC for OCC(CN1CCCCC1)Nc1ncnc2[nH]ccc12 (centres unmarked) : what is it? 0.21

Using the record for OC1CCCN(c2ncnc3[nH]ccc23)C1 (centres unmarked) , report its PanDDA run, DMSO background map: 1-BDC. 0.22

# lookup: PanDDA run, DMSO background map: 1-BDC of `C[C@@H](O)[C@H](CO)Nc1ncnc2[nH]ccc12.O=C(O)C(F)(F)F` 0.14

Origin of values: paper PMC12118597
